Could you please report measured pIC50 for the items listed next?
# System: MCF-7 (breast carcinoma)
# assay.procedure: Antiproliferative activity in vitro, MTT, 72 h
# Assay type: cell-based
# condition: Homo sapiens, MCF7, concentration that causes 50% growth inhibition
Worth noting: pIC50 values are minus log10 of concentrations stated in mol/L.

Param item = COc1cc(C(=O)Nc2nc3ccc(C#N)cc3n2C)cc(OC)c1OC ; retrieve measured pIC50.
5.26

Entry CC(C)Cn1c(NC(=O)c2ccccc2)nc2ccccc21 please
5.57

Entry COc1cc(C(=O)Nc2nc3ccccc3n2-c2ccccc2)cc(OC)c1OC please
5.54

Entry COc1cc(C(=O)Nc2nc3ccccc3n2CC(C)C)cc(OC)c1OC please
5.34

Entry COc1cc(C(=O)Nc2nc3ccc(C#N)cc3n2-c2ccccc2)cc(OC)c1OC please
4.53

----------
# Tested on: MCF-7 (breast carcinoma)
# assay.procedure: Antiproliferative activity in vitro, MTT, 72 h
# Type: cell-based
# condition: Homo sapiens, MCF7, concentration that causes 50% growth inhibition
Could you please report measured pIC50 for the items listed next?
Worth noting: pIC50 values are minus log10 of concentrations stated in mol/L.

Param item = COc1cc(C(=O)Nc2nc3ccccc3n2C)cc(OC)c1OC [Compound 31] ; retrieve measured pIC50.
4.62

Entry COc1ccc(C(=O)Nc2nc3ccc(C#N)cc3n2C)c(OC)c1 [Compound 34] please
4.33

Entry Cn1c(NC(=O)c2ccccc2)nc2ccccc21 [Compound 28] please
4.92

Entry COc1cc(C(=O)Nc2nc3ccc(C#N)cc3n2CC(C)C)cc(OC)c1OC [Compound 43] please
5.51

Entry CC(C)Cn1c(NC(=O)c2ccccc2)nc2ccc(C#N)cc21 [Compound 40] please
5.66

Entry COc1cc(C(=O)Nc2nc3ccccc3[nH]2)cc(OC)c1OC [Compound 27] please
4.48

Entry COc1cc([C@@H]2c3cc4c(cc3[C@@H](O[C@@H]3O[C@@H]5CO[C@@H](C)O[C@H]5[C@H](O)[C@H]3O)[C@H]3COC(=O)[C@H]23)OCO4)cc(OC)c1O [Etoposide, reference compound] please
6.00
